Value source: a collection of fitness landscapes (doi:10.1016/j.celrep.2020.107928)

one-hybrid fitness for binding parS DNA values, listed per item
B1: Caulobacter ParB omega fusion; a variant is named by its letters at X, in order, B8GW30 (parent)
chain: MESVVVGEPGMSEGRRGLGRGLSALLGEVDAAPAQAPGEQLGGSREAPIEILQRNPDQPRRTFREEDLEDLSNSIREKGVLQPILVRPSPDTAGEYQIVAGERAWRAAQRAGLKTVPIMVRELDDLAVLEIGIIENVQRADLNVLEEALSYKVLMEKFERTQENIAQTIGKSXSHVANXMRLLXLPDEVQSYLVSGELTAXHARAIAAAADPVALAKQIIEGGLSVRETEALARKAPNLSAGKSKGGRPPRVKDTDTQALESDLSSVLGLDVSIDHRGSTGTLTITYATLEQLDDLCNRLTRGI

# Variants of: B1
# Assay Name: one-hybrid fitness for binding parS DNA (scaled: cognate 1, non-cognate 0); higher = stronger binding
# Reported Conditions: with parS DNA site
The full ranking holds about 81,000 sequences; the median of “one-hybrid fitness for binding parS DNA” is about -0.17, and the highest 2% start at about 0.51. The sample as a whole holds a higher share of the highest values than the screen did.

Take a look at these entries with their results.
>  <Mutation Descriptor>
RSKS

>  <Result>
0.883

$$$$
>  <Mutation Descriptor>
RIWN

>  <Result>
0.455

$$$$
>  <Mutation Descriptor>
RNRR

>  <Result>
≤ 0.2

$$$$
>  <Mutation Descriptor>
RWLF

>  <Result>
≤ 0.2

$$$$
>  <Mutation Descriptor>
RSKD

>  <Result>
≤ 0.2

$$$$
>  <Mutation Descriptor>
RICK

>  <Result>
0.208

$$$$
>  <Mutation Descriptor>
IWRM

>  <Result>
≤ 0.2

$$$$
>  <Mutation Descriptor>
RQDP

>  <Result>
≤ 0.2

$$$$

Which one-hybrid fitness for binding parS DNA is listed for RCKS ?
0.836

Which one-hybrid fitness for binding parS DNA is listed for ELGD ?
≤ 0.2

Which one-hybrid fitness for binding parS DNA is listed for RIGT ?
0.924

Which one-hybrid fitness for binding parS DNA is listed for RWRY ?
0.494
